This collection of values is drawn from paper PMC12410356.

- Tested on: E. multilocularis metacestode vesicles
- Procedure text: Phosphoglucose isomerase (PGI) release assay (damage-marker release) on metacestode vesicles
- Format: cell-based, Echinococcus multilocularis
- Recorded conditions: overview screen, 10 μM, singlets, 5 days, relative to 0.1 % Triton X-100, DMSO subtracted
Observable: PGI d5 (relative PGI release) (%)
Respond numerically; units are % and should not be typed.

N#C/C(=C1/SC[C@@H](c2ccc(Cl)cc2Cl)S1)n1ccnc1 :: 12.0659
CCCC1(C2CC2)c2cc(Cl)ccc2NC(=O)N1C (centres unmarked) :: 0.2859
CC(C)CCN1C(=O)C(C2=NS(=O)(=O)c3cc(NS(C)(=O)=O)ccc3N2)=C(O)[C@@H]2[C@H]3CC[C@H](C3)[C@@H]21 :: 0.5402
O=C(Nc1[nH]c(=O)ncc1F)c1ccccc1 :: -0.8152
N[C@H]1CCC[C@H]1C(=O)O :: 0.2611
O=C(NCCN1CCCCC1)c1cccc(C(F)(F)F)c1 :: 0.4856
Cc1onc(-c2ccccc2Cl)c1C(=O)N[C@@H]1C(=O)N2[C@@H]1SC(C)(C)[C@@H]2C(=O)O :: -1.463
OC(Cn1cncn1)(Cn1cncn1)c1ccc(F)cc1F :: -1.63
Nc1nnc(-c2ccc(Cl)cc2)s1 :: 0.5147
COc1ccc(CNC(=O)C(NS(=O)(=O)c2ccc3nc(C)sc3c2)C(C)C)cc1 (centres unmarked) :: -2.8306

Recall the recorded PGI d5 (relative PGI release) for O=C(CSc1nnc(Br)n1-c1ccc(C2CC2)c2ccccc12)Nc1ccc(C(=O)O)cc1Cl with E. multilocularis metacestode vesicles and state it.
1.533

Now the compound CCc1ccccc1OCCN1CCCCCC1
1.217

Try this compound too: CC(C)Oc1ccc(-c2nc(-c3cccc4c3CC[C@@H]4NCCO)no2)cc1C#N
-0.3732

Item: O[C@@](Cn1cnnn1)(c1ccc(F)cc1F)C(F)(F)c1ccc(-c2ccc(OCC(F)(F)F)cc2)cn1
-2.798

What do you get for O=C1NC(=O)C(Br)=C1Br ?
3.162

What do we get for O=C(NO)C1(CS(=O)(=O)c2ccc(Oc3ccc(Cl)cc3)cc2)CCOCC1 ?
0.06885

Here is the next compound: COc1cc(NCc2ccc3nc(N)nc(N)c3c2C)cc(OC)c1OC
-1.642

Now try C[C@H]1[C@@H](c2cccc(C(F)(F)F)c2)OC(=O)N1C(=O)NCc1cncc2ccccc12 .
-2.428

Can you check CC(C)c1cc2c(cc1S(=O)(=O)O)[C@@]1(C)CCC[C@@](C)(C(=O)O)[C@@H]1CC2 next?
-5.75

----------
# Viability d12 (relative viability) values compiled below
- Test system: E. multilocularis metacestode vesicles
- Procedure text: Metacestode vesicle viability assay (ATP, CellTiter-Glo)
- Assay type: cell-based, Echinococcus multilocularis
- Recorded conditions: overview screen, 10 μM, singlets, 12 days, relative to DMSO control
Just the number in %, nothing appended.

Examples from the recorded data:
Nc1cccc(-c2nc(N)nc(NC3Cc4ccccc4C3)n2)c1 [MMV1581555] :: 66.1297
CC[C@H](CO)NCCN[C@H](CC)CO [MMV687801] :: 117.919
CCOC(=O)N1CCN(c2ccc(Cl)cc2)CC1 [MMV1578898] :: 47.7603
COc1cc(C)c2c(Oc3cccc(C(F)(F)F)c3)c(OC)cc(NC(C)CCCN)c2n1.O=C(O)CCC(=O)O (stereo not drawn) [MMV000043] :: 100.948
Cc1[nH]c2ccccc2c1CC(=O)N[C@@H](Cc1ccccc1)C(=O)N(C)c1ccccc1 [MMV1580798] :: 204.25

Quick one: Viability d12 (relative viability) for Cc1c(OCC(F)(F)F)ccnc1C[S+]([O-])c1nc2ccccc2[nH]1 (stereo not drawn) [MMV001438] ?
96.7343

Follow-up item: O=C(c1nc2c(C(F)(F)F)cc(C3CC3)cn2c1Cl)N1CCN([C@H]2CC[C@H](O)CC2)C(=O)C1 [MMV1634396]
113.417

Ok, now NC(=O)c1cnc2ccc(S(=O)(=O)c3ccccc3)cc2c1Nc1ccc(O)cc1 [MMV1580848]
51.7682

Also, CC1(C)CC(NC(=O)C(=O)Nc2ccc(Cl)cc2)CC(C)(C)N1 [MMV1580501] please.
102.317
